Values were extracted from patent US20100035755A1.

For each record, write down the corresponding efficacy (0-100 scale).
tested on: Trifolium repens; experiment: Weed spectrum, greenhouse pot test; type: in vivo; settings: Pre-emergence, 100 g ai/ha, two weeks after application
Please give only the number in your answer, with no unit.

Query: Tell me the measured efficacy (0-100 scale) of COc1nc(C)nc(NC(=O)NS(=O)(=O)c2cscc2C2(CF)OCCO2)n1 , please.
Response: 90

Query: Try the compound COc1cc(OC)nc(NC(=O)NS(=O)(=O)c2ncccc2C(F)(F)F)n1 [Control chemical No. 2, Flazasulfuron, reference compound]
Response: 100

Query: Try the compound Cc1cc(C)nc(NC(=O)NS(=O)(=O)c2ccccc2C(O)C(C)F)n1 (stereo not shown)
Response: 70

Query: Try the compound CCOC(=O)c1cnn(C)c1S(=O)(=O)NC(=O)Nc1nc(OC)cc(OC)n1 [Control chemical No. 1, Pyrazosulfuron ethyl, reference compound]
Response: 70
